- experimental-target: T1, LIG-34 meganuclease (Artificial Sequence (derived from …))
- T1 chain: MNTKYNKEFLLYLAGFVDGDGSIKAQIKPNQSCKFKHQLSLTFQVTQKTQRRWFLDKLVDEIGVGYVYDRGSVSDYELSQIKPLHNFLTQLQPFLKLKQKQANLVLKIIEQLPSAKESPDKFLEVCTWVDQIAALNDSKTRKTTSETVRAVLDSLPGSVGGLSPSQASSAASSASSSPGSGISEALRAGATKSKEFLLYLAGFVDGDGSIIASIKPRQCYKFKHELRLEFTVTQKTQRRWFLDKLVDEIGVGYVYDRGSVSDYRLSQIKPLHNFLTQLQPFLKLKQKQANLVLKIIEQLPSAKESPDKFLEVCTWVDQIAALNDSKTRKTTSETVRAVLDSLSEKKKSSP
- experimental-details: cleavage_in_vitro; C50, enzyme to cut 50% of 10 nM linearized pUC19 substrate in 1 h; 37 C, SA buffer pH 8.0, 100 mM NaCl, 5 mM MgCl2, 5 mM EDTA
- protocol-conditions: tags: C-terminal 6xHis; N-terminal SV40 NLS; inferred)
value-type: EC50

Exercise: Sample LIG-34 recognition site (dsDNA) DNA 1: TACGCGTACGTGTGAGGTATAT DNA 2: ATATACCTCACACGTACGCGTA — what was its EC50?
Solution: ~16 nM
